Quick list: EC50 per entry.
# target: T1, recombinant human PD-L1 (human, UniProt Q9NZQ7 19-238, limits assumed)
# T1 construct: also called PD-L1 protein
# T1 sequence (Q9NZQ7 19-238 limits assumed): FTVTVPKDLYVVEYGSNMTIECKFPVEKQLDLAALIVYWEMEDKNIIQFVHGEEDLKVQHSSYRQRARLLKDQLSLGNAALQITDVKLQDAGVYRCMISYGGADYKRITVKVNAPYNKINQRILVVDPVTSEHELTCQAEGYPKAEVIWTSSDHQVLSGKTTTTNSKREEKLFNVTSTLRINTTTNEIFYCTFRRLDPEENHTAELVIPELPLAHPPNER
# test-details: ELISA on human PD-L1, OD 650 nm
A bare number is not enough; add the unit after it.

// known answers, use as guide
chimeric anti-PD-L1 antibody 9A9 (antibody, human IgG1, V domains shown, also called c9A9; chimeric 9A9) VH: QSVEESGGRLVTPGTPLTLTCTVSGIDLSGYWMSWVRQAPGKGLEYIGIVDNDGSAYYASWVNGRFTISKTSTTVDLKITSPTTEDTATYFCARQSGDWTFDLWGPGTLVTVSS VL: DVVMTQTPASVSEPVGGTVTIKCQASQSIGRWLSWYQQKPGQPPKLLIYQASKLASGVPSRFSGSGSGTEFTLTISDLECADAATYYCQNNYDIIAYGNAFGGGTEVVVK; 0.00713 µg/mL
h15E9_HZD1 (antibody, V domains shown, also called humanized 15E9 HZD1) VH: EVQLVESGGGLVQPGGSLRLSCAASGFDISNYWMSWVRQAPGKGLEWVGIISTGGNTWYASWVKGRFTISRDNSKNTLYLQMNSLRAEDTAVYYCARVVIYGGTTSSFNLWGQGTLVTVSS VL: DIQMTQSPSSLSASVGDRVTITCQSSQNVYNKIRLSWYQQKPGKAPKELIYAASSLASGVPSRFSGSGSGTEFTLTISSLQPEDFATYYCQGGYSGPIYAFGGGTKVEIK; 0.267 µg/mL

Now take the following binder into account.
Param item = h9A9-HZD2 (antibody, V domains shown, also called humanized 9A9 HZD2) VH: EVQLVESGGGLVQPGGSLRLSCAASGFDVSGYWMSWVRQAPGKGLEWVGIVDNDGSAYYASWVNGRFTISRDNSKNTLYLQMNSLRAEDTAVYYCARQSGDWTFDLWGQGTLVTVSS VL: DIQMTQSPSTLSASVGDRVTITCQASQSIGRWLSWYQQKPGKAPKLLIYQASKLASGVPSRFSGSGSGTEFTLTISSLQPDDFATYYCQNNYDIIAYGNAFGGGTKVEIK ; retrieve measured EC50.
0.0126 µg/mL
